This collection of values is drawn from PubChem BioAssay AID1813.

Assay: 5' untranslated region of α-synuclein, MLPCN primary screen (AID 1813);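 further: H4 neuroglioblastoma cells stably carrying SNCA 5'UTR luciferase fusion; 0% = DMSO wells and 100% = positive control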
Conditions: alpha-synuclein 5'UTR reporter, inhibitor activity; active compounds read high; tested at 7.5 µM
In all, about 300,000 compounds went through this assay and about 2,500 (0.83%) were called active. The sample holds actives, similar compounds and a random draw of the others, so the mix is not that of the screen.
Answer Condition not met if inhibition is under 10%, and Condition met if it is 10% or more.

Exam item: Would you say COc1c(C)c2c(c(O)c1C/C=C(\C)CCC(=O)O)C(=O)OC2 shows inhibition at minimum 10%?
Marked response: Condition met

Exam item: Would you say CC(C)[C@H](NC(=O)N1CCn2c1nc1ccccc12)C(=O)NC1CC1 shows inhibition at minimum 10%?
Marked response: Condition not met

Exam item: Would you say N#CC(C(=O)c1ccc(S(=O)(=O)N2CCCCCC2)cc1)c1nc2ccccc2[nH]1 (stereo not given) shows inhibition at minimum 10%?
Marked response: Condition not met

Exam item: Would you say Cc1ccc2nc(SC(C)C(=O)NCc3ccco3)[nH]c2c1 (stereo not given) shows inhibition at minimum 10%?
Marked response: Condition met

----------
Experiment: 5' untranslated region of α-synuclein, MLPCN primary screen (AID 1813)
Details: alpha-synuclein 5'UTR reporter, inhibitor activity; active compounds read high; tested at 7.5 µM
In all, about 300,000 compounds went through this assay and about 2,500 (0.83%) were called active. The entries come from a sample that favours actives as a whole.
Give inhibition for every item shown.
Unit % implied. Number only.

Exam item: # lookup: inhibition of CCCc1cc(=O)[nH]c(SCC(=O)c2c(N)n(CC(C)C)c(=O)n(C)c2=O)n1
Marked response: 88.3

Exam item: # lookup: inhibition of NS(=O)(=O)c1ccc(NC2=CC(c3ccc(F)cc3)N(c3ccc(S(N)(=O)=O)cc3)C2=O)cc1 (centres undefined)
Marked response: 15.1

Exam item: # lookup: inhibition of CCCc1cc(=O)[nH]c(SCC(=O)c2cc(C)n(CCC)c2C)n1
Marked response: 23.4

Exam item: # lookup: inhibition of CCCOc1cccc(C(=O)Nc2nnn(CCC)n2)c1
Marked response: -87.6

----------
Test: 5' untranslated region of α-synuclein, MLPCN primary screen (AID 1813);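 further: H4 neuroglioblastoma cells stably carrying SNCA 5'UTR luciferase fusion; 0% = DMSO wells and 100% = positive control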
Conditions: alpha-synuclein 5'UTR reporter, inhibitor activity; active compounds read high; tested at 7.5 µM
The whole screen tested about 300,000 compounds, of which about 2,500 (0.83%) were called active. Shown is part of a subset that was picked to be rich in actives.
Give inhibition for every item shown.

Exam item: # lookup: inhibition of OCCN1CCN(c2nnc(-c3ccccc3)c3ccccc23)CC1
Marked response: 18.9% (inactive)

Exam item: # lookup: inhibition of COc1ccc(-n2nnnc2SCc2nc(N)nc(N3CCOCC3)n2)cc1
Marked response: 13.4% (inactive)

Exam item: # lookup: inhibition of CN(C)c1nc(N)nc(CSc2ccccn2)n1
Marked response: -19.1% (inactive)

Exam item: # lookup: inhibition of Cc1onc(-c2ccccc2Cl)c1C(=O)NCCn1ccc2ccccc21
Marked response: 29.7% (inactive)

Exam item: # lookup: inhibition of CC1(C(=O)N/N=C/c2cc3c(cc2Br)OCO3)CC1(Br)Br (stereo unspecified)
Marked response: 4.98% (inactive)

Exam item: # lookup: inhibition of CN(C)c1ccc(C(CNC(=O)c2ccc(F)cc2)c2c[nH]c3ccccc23)cc1 (stereo unspecified)
Marked response: 4.86% (inactive)

Exam item: # lookup: inhibition of COc1ccc(NC(=O)CN(C)C(=O)Cc2coc3cc(C)c(C)cc23)cc1
Marked response: 6.29% (inactive)

Exam item: # lookup: inhibition of CCc1nc2cccnc2n1-c1ccc(C(=O)O)cc1
Marked response: -14.6% (inactive)

Exam item: # lookup: inhibition of CN(C)c1nc(N)nc(CSc2nnnn2-c2cccc3ccccc23)n1
Marked response: 68.9% (active)

Exam item: # lookup: inhibition of CCN(C(=O)c1cc([N+](=O)[O-])ccc1NCc1cccnc1)c1ccccc1
Marked response: 14.1% (inactive)

Exam item: # lookup: inhibition of Cc1oc2c(c1C(=O)N1CCOCC1)C(=O)c1ccccc1C2=O
Marked response: 101% (active)

Exam item: # lookup: inhibition of COCCC(=O)N1CCC(Oc2ccc(C(=O)NCc3ccon3)cc2)CC1
Marked response: -4.68% (inactive)

Exam item: # lookup: inhibition of CN1C(=O)[C@H]2[C@@H](C3CC3)N3C(=O)CN(Cc4ccccc4)C(=O)[C@@]3(C)[C@H]2C1=O
Marked response: -12.7% (inactive)

Exam item: # lookup: inhibition of CCOC(=O)c1ccccc1C(=O)N1CCOCCOCCOCC1
Marked response: 7.43% (inactive)

Exam item: # lookup: inhibition of CC(C)S(=O)(=O)c1csc(NC(=O)Nc2ccc(Cl)cc2)c1Cl
Marked response: -49.4% (inactive)

Exam item: # lookup: inhibition of COc1ccc(NC(=O)CSc2ccc(-c3ccco3)nn2)c(OC)c1
Marked response: 7.22% (inactive)

Exam item: # lookup: inhibition of COc1ccc(-c2cc(=O)oc3cc(OCC(=O)N[C@@H](Cc4c[nH]c5ccccc45)C(=O)O)ccc23)cc1
Marked response: 9.25% (inactive)

Exam item: # lookup: inhibition of Cc1onc(-c2ccccc2Cl)c1C(=O)N(Cc1ccc(N(C)C)cc1)C(C)C
Marked response: 73.1% (active)

Exam item: # lookup: inhibition of CCC1=C(OC(=O)N(CC)CC)N2C(=O)OC(=NCCc3c[nH]c4ccccc34)[C@]2(C)[C@H]2C1=CC[C@H]1C(=O)N(CC)C(=O)[C@H]12
Marked response: -3.3% (inactive)

Exam item: # lookup: inhibition of CCCC1=Nc2cc(C(=O)NCCN3CCCC3)ccc2Sc2ccccc21
Marked response: -14.6% (inactive)

Exam item: # lookup: inhibition of CCOC(=O)c1ccc(NNC(C)=O)c([N+](=O)[O-])c1
Marked response: -28% (inactive)

----------
Give inhibition for every item shown.
Assay: 5' untranslated region of α-synuclein, MLPCN primary screen (AID 1813);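 further: H4 neuroglioblastoma cells stably carrying SNCA 5'UTR luciferase fusion; 0% = DMSO wells and 100% = positive control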
Conditions: alpha-synuclein 5'UTR reporter, inhibitor activity; active compounds read high; tested at 7.5 µM
Screen size: about 300,000 compounds; about 2,500 (0.83%) were called active. The sample holds actives, similar compounds and a random draw of the others, so the mix is not that of the screen.

Exam item: # lookup: inhibition of O=c1c([N+](=O)[O-])cc(C(F)(F)F)cn1Cc1cccc(Cl)c1
Marked response: 17.2% (inactive)

Exam item: # lookup: inhibition of C=CCc1cccc2cc(C(=O)Nc3ccc(NC(C)=O)cc3)c(=O)oc12
Marked response: -30.5% (inactive)

Exam item: # lookup: inhibition of Cc1cccnc1NC(=O)c1cccc(S(=O)(=O)N2CCN(c3ccc(F)cc3)CC2)c1
Marked response: 26.9% (inactive)

Exam item: # lookup: inhibition of O=C1CCCN2N=C(SCC(=O)Nc3ccc(Br)cc3)SC2=N1
Marked response: 10.7% (inactive)

Exam item: # lookup: inhibition of Oc1c(CN2CCN(c3ccc(F)cc3)CC2)cc(Cl)c2cccnc12
Marked response: 69.6% (active)

Exam item: # lookup: inhibition of CC[C@H]1CN2CCc3cc(OC)c(OC)cc3[C@@H]2C[C@@H]1C[C@H]1NCCc2cc(OC)c(OC)cc21
Marked response: 109% (active)

Exam item: # lookup: inhibition of CCN(CC)S(=O)(=O)c1ccc(N2CCCC2)c(NS(=O)(=O)c2cccs2)c1
Marked response: -11.1% (inactive)

Exam item: # lookup: inhibition of CCN1CCN(C(c2cccnc2)c2cc(Cl)c3cccnc3c2O)CC1 (stereo not given)
Marked response: -29.1% (inactive)

Exam item: # lookup: inhibition of CCc1ccc(OCC2c3cc(OC)c(OC)cc3CCN2C(C)=O)cc1 (stereo not given)
Marked response: 0.678% (inactive)

Exam item: # lookup: inhibition of CCn1nc(C)c(NC(=O)/C=C/c2ccc(OC)c(COc3ccc(Br)cc3)c2)c1C
Marked response: 61.8% (active)

----------
Test: 5' untranslated region of α-synuclein, MLPCN primary screen (AID 1813);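 further: H4 neuroglioblastoma cells stably carrying SNCA 5'UTR luciferase fusion; 0% = DMSO wells and 100% = positive control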
Conditions: alpha-synuclein 5'UTR reporter, inhibitor activity; tested at 7.5 µM
The whole screen tested about 300,000 compounds, of which about 2,500 (0.83%) were called active. No stated cut-off is given here; in the data, active means inhibition above about 60%; inconclusive means no clear call, values can overlap the other calls; inactive means below that. The full list was thinned out, with actives kept by preference.
# output must be one of 1.0 (active), 0.0 (inactive)

Exam item: Just curious, what result did COc1ccc2[nH]c3nc(SCC(=O)NC4CC4)nnc3c2c1 get here?
Marked response: 0.0

Exam item: Just curious, what result did CC(C)CNC(=O)COC(=O)c1ccccc1OCC(=O)Nc1ccc(Br)cc1 get here?
Marked response: 0.0

Exam item: Just curious, what result did O=C(CN1CCN(c2ccccn2)CC1)N1CCc2ccccc21 get here?
Marked response: 0.0

Exam item: Just curious, what result did CCOc1cc(/C=C2\SC(N3CCCC(C)C3)=NC2=O)ccc1O (stereo unspecified) get here?
Marked response: 0.0

Exam item: Just curious, what result did O=C(CN1C(=O)c2ccccc2S1(=O)=O)NC1CCCCC1 get here?
Marked response: 0.0

Exam item: Just curious, what result did COc1ccc(NC(=O)c2cccc3c2C(=O)N(CC2CCCO2)C3)cc1OC (stereo unspecified) get here?
Marked response: 0.0

Exam item: Just curious, what result did Cn1c(Cc2cccs2)nnc1SCC(=O)Nc1ccccc1 get here?
Marked response: 0.0

Exam item: Just curious, what result did O=C(CN1CCOCC1)Nc1cccc([N+](=O)[O-])c1 get here?
Marked response: 0.0

Exam item: Just curious, what result did CCCCCCCCn1c2c(c(=N)c3c1CCC3)CCCC2 get here?
Marked response: 1.0

Exam item: Just curious, what result did Nc1nonc1-n1nnc(C(=O)N/N=C/c2c[nH]c3ccccc23)c1-c1ccccc1 get here?
Marked response: 0.0

Exam item: Just curious, what result did COc1cc(N=Cc2c(O)[nH]c3ccccc23)cc(OC)c1OC get here?
Marked response: 1.0
